- TARGET_OR_SYSTEM: PRMT5/MEP50 complex (Homo sapiens (Human))
- Sequence (O14744 whole entry): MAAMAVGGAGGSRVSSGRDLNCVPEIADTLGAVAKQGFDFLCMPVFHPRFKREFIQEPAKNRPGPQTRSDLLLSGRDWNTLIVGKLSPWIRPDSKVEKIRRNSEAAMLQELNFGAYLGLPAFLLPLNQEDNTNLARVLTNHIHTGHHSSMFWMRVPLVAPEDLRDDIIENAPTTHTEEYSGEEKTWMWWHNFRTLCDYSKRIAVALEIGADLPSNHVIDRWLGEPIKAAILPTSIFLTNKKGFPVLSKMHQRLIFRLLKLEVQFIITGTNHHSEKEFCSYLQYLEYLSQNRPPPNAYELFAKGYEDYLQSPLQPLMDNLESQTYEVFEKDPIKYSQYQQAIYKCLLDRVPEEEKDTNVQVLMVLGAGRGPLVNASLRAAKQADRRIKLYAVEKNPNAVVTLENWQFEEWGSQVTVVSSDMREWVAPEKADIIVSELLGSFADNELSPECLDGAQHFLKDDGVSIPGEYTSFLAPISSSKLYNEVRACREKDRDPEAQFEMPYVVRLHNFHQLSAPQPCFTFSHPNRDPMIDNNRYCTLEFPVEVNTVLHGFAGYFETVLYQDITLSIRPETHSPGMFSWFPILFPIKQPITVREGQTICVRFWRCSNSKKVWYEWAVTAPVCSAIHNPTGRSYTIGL
- Sequence (Q9BQA1 whole entry partner): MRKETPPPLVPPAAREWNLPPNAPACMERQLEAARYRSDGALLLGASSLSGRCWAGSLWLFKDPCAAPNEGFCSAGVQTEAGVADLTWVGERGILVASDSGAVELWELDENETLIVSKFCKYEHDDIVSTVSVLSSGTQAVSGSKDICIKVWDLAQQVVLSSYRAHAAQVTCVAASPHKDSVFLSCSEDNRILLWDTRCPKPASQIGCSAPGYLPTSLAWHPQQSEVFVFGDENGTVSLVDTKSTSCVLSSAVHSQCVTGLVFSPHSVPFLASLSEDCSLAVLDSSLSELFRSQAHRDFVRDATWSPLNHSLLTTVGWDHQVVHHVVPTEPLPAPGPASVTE
- MEASUREMENT_PROTOCOL: PRMT5:MEP50 FlashPlate Assay
- Format: biochemical
- CONDITION_PARAMETERS: histone H4 peptide, absence of MTA, read-out: IC50
Y if IC50 is below 80 µM. N if not; exact matches included in N.

CC(=O)N(Cc1cc2nc(N)c(C)cc2[nH]1)c1ccc2ccccc2c1C#N [Example 14-2] :: Y
Cc1cc(N)nc2cc(CNC(=O)c3cc(O)ncn3)cnc12 [Example 7-3] :: N
Cc1cc(N)nc2cc(CNC(=O)c3ccncn3)cnc12 [Example 7-2] :: N
Cc1cc2[nH]c(CN3CCc4ccccc4C3=O)cc2nc1N [Example 14-6] :: Y
CC(=O)N1CCC(=O)n2c(cc3nc(N)c(C)cc32)C1 [Example 15-2] :: N
Cc1cc2[nH]c(C(C#N)N3C(=O)c4ccccc4C3=O)cc2nc1N (stereo not drawn) [Example 14-5] :: N
Nc1nc2cc(CNC(=O)c3ccncn3)[nH]c2cc1Br [Example 8-2] :: Y
Cc1cc2[nH]c(CNC(=O)c3ccccc3)c(C#N)c2nc1N [Example 15-6] :: N
Cc1cc(N)nc2ccc(-c3ccccc3F)nc12 [Example 4-7] :: N
Cc1cc2[nH]c(N3CC(=O)NC3=O)cc2nc1N [Example 13-7] :: N
Cc1cc2[nH]c(N3CCN(C)C3=O)cc2nc1N [Example 13-5] :: N
Cc1cc2c(cc(CNC(=O)c3ccccc3)n2C2CC2)nc1N [Example 15-1] :: N
CC(=O)N(C)Cc1cc2nc(N)c(C)cc2[nH]1 [Example 14-4] :: N
Cc1cc2sc(CNC(=O)c3ccccc3)cc2nc1N [Example 16-1] :: N
Cc1cc(N)nc2cc(-c3cnsc3)cnc12 [Example 1-8] :: N
Cc1cc2[nH]ccc2nc1N [Example 9-1] :: N
Cc1cc2[nH]c(-n3cnc(Br)c3)cc2nc1N [Example 13-3] :: N
Cc1cc(N)nc2cc(C(C#N)N3C(=O)c4ccccc4C3=O)cnc12 (stereo not drawn) [Example 7-7] :: N
CC(=O)NCc1cc2nc(N)c(C)cc2[nH]1 [Example 14-3] :: N
Cc1cc2[nH]c(Cn3ccc4ccccc4c3=O)cc2nc1N [Example 14-7] :: Y
Cc1cc2[nH]c(-n3cnc(Br)n3)cc2nc1N [Example 13-2] :: N
